Hey, just so you know, these numbers are from patent US10285982B2.

Measured inhibition at 10 µM, listed per entry for reference.
System: SW480 colon cancer cells
test.protocol: Cell viability assay (CellTiter-Blue)
Assay type: cell-based
details: Homo sapiens, 96 h, at 10 μM, given where EC50 >10 μM, four days, read-out: percent inhibition at 10 μM
quantity.kind: inhibition at 10 µM (%)

chem_smiles=CC(C)CC(=O)Nc1cncc(-c2cc3c(-c4cc5cccnc5[nH]4)n[nH]c3cn2)c1 tested_target="SW480 colon cancer cells" quantity_kind="inhibition at 10 µM" readout_value=20.2
chem_smiles=O=C(Nc1cncc(-c2cc3c(-c4cc5c(-c6cccnc6)ccnc5[nH]4)n[nH]c3cn2)c1)c1ccccc1 tested_target="SW480 colon cancer cells" quantity_kind="inhibition at 10 µM" readout_value=14.2
chem_smiles=O=C(Nc1cncc(-c2cc3c(-c4cc5cccnc5[nH]4)n[nH]c3cn2)c1)C1CC1 tested_target="SW480 colon cancer cells" quantity_kind="inhibition at 10 µM" readout_value=23.3
chem_smiles=CN(C)Cc1cncc(-c2cc3c(-c4cc5c(-c6ccncc6)ccnc5[nH]4)n[nH]c3cn2)c1 tested_target="SW480 colon cancer cells" quantity_kind="inhibition at 10 µM" readout_value=3.9
chem_smiles=CN1CCN(c2ccnc3[nH]c(-c4n[nH]c5cnc(-c6cn[nH]c6)cc45)cc23)CC1 tested_target="SW480 colon cancer cells" quantity_kind="inhibition at 10 µM" readout_value=10.7
chem_smiles=Cn1cc(-c2cc3c(-c4cc5cccnc5[nH]4)n[nH]c3cn2)cn1 tested_target="SW480 colon cancer cells" quantity_kind="inhibition at 10 µM" readout_value=0
chem_smiles=c1cc(N2CCCCC2)c2cc(-c3n[nH]c4cnc(C5CCNCC5)cc34)[nH]c2n1 tested_target="SW480 colon cancer cells" quantity_kind="inhibition at 10 µM" readout_value=12
chem_smiles=CCNCc1cncc(-c2cc3c(-c4cc5c(-c6cccnc6)ccnc5[nH]4)n[nH]c3cn2)c1 tested_target="SW480 colon cancer cells" quantity_kind="inhibition at 10 µM" readout_value=16
chem_smiles=CN(C)CCNc1cc(F)cc(-c2ccnc3[nH]c(-c4n[nH]c5cnc(-c6cncnc6)cc45)cc23)c1 tested_target="SW480 colon cancer cells" quantity_kind="inhibition at 10 µM" readout_value=17
chem_smiles=CN(C)CCNc1cc(F)cc(-c2ccnc3[nH]c(-c4n[nH]c5cnc(-c6ccncc6)cc45)cc23)c1 tested_target="SW480 colon cancer cells" quantity_kind="inhibition at 10 µM" readout_value=16.8
chem_smiles=O=C(Cc1ccccc1)Nc1cncc(-c2cc3c(-c4cc5cccnc5[nH]4)n[nH]c3cn2)c1 tested_target="SW480 colon cancer cells" quantity_kind="inhibition at 10 µM" readout_value=26.5
chem_smiles=c1csc(-c2ccnc3[nH]c(-c4n[nH]c5cnc(-c6cncc(OC7CCCCC7)c6)cc45)cc23)c1 tested_target="SW480 colon cancer cells" quantity_kind="inhibition at 10 µM" readout_value=2.7
chem_smiles=CN(C)Cc1cncc(-c2cc3c(-c4cc5c(-c6ccccc6F)ccnc5[nH]4)n[nH]c3cn2)c1 tested_target="SW480 colon cancer cells" quantity_kind="inhibition at 10 µM" readout_value=13.2
chem_smiles=Fc1cccc(-c2ccnc3[nH]c(-c4n[nH]c5cnc(-c6cncc(CN7CCCC7)c6)cc45)cc23)c1 tested_target="SW480 colon cancer cells" quantity_kind="inhibition at 10 µM" readout_value=13.3
chem_smiles=CN(C)CCOc1cncc(-c2cc3c(-c4cc5c(-c6cccnc6)ccnc5[nH]4)n[nH]c3cn2)c1 tested_target="SW480 colon cancer cells" quantity_kind="inhibition at 10 µM" readout_value=0
chem_smiles=Fc1cccc(-c2ccnc3[nH]c(-c4n[nH]c5cnc(-c6cncnc6)cc45)cc23)c1 tested_target="SW480 colon cancer cells" quantity_kind="inhibition at 10 µM" readout_value=41.2
chem_smiles=CCCC(=O)Nc1cncc(-c2cc3c(-c4cc5c(-c6cc(F)cc(NCCN(C)C)c6)ccnc5[nH]4)n[nH]c3cn2)c1 tested_target="SW480 colon cancer cells" quantity_kind="inhibition at 10 µM" readout_value=10.6
chem_smiles=O=C(Nc1cncc(-c2cc3c(-c4cc5c(-c6ccncc6)ccnc5[nH]4)n[nH]c3cn2)c1)C1CCC1 tested_target="SW480 colon cancer cells" quantity_kind="inhibition at 10 µM" readout_value=3.7
chem_smiles=Nc1cncc(-c2cc3c(-c4cc5c(-c6ccccc6F)ccnc5[nH]4)n[nH]c3cn2)c1 tested_target="SW480 colon cancer cells" quantity_kind="inhibition at 10 µM" readout_value=16.4
chem_smiles=O=C(Nc1cncc(-c2cc3c(-c4cc5c(-c6cccc(F)c6)ccnc5[nH]4)n[nH]c3cn2)c1)c1ccccc1 tested_target="SW480 colon cancer cells" quantity_kind="inhibition at 10 µM" readout_value=46.8
